Origin of the recorded values: PubChem BioAssay AID248

Attribute: T/C
# Test system: L1210 leukemia ip in BDF1 mice, survival T/C
# assay_notes: NCI In Vivo Anticancer Drug Screen. Data for tumor model L1210 Leukemia (intraperitoneal) in B6D2F1 (BDF1) mice
# test_conditions: endpoint: mean survival time; dose: 200.0 mg/kg/injection; schedule: Q01DX001 (ip); vehicle: carboxymethylcellulose (CMC); higher = longer survival
Toxic doses and inconclusive results are not listed.
readout_type: T/C

* CCCC(CCC)(C(N)=O)c1ccc(OC)cc1 | 98 % of control
* Cc1c(C2CCC(=O)C2)c2ccccc2n1C (stereo unspecified) | 89 % of control
* COc1ccc(C2NCCCC2c2ccccc2)cc1 (stereo unspecified) | 94 % of control
* C[C@]12CC[C@H]3[C@@H](CC[C@]4(O)C[C@@H](O)CC[C@]34C=O)[C@@]1(O)CC[C@@H]2C1=CC(=O)OC1 | 93 % of control
* CCOC(=O)CCCN(c1ccccc1C(=O)OC)S(=O)(=O)c1ccc(C)cc1 | 94 % of control
* O=C(NO)Nc1cccc(Cl)c1 | 97 % of control

----------
# Test system: L1210 leukemia ip in BDF1 mice, survival T/C
# assay_notes: NCI In Vivo Anticancer Drug Screen. Data for tumor model L1210 Leukemia (intraperitoneal) in B6D2F1 (BDF1) mice
# test_conditions: endpoint: mean survival time; dose: 400.0 mg/kg/injection; schedule: Q04DX003 (ip); vehicle: saline with Tween-80; higher = longer survival
Toxic doses and inconclusive results are not listed.
readout_type: T/C

• CC(C(=O)c1cc(O)c(O)cc1C(O)(C(F)(F)F)C(F)(F)F)C(O)(C(F)(F)F)C(F)(F)F (stereo unspecified) = 98 % of control
• CSc1nnc(-c2ccc(OCCOc3ccc(C(C)(C)CC(C)(C)C)cc3)cc2)s1 = 91 % of control
• CC(=O)OCC1OC(OC2C(COC(C)=O)OC(Sc3ccccc3)C(OC(C)=O)C2OC(C)=O)C(OC(C)=O)C(OC(C)=O)C1OC(C)=O (stereo unspecified) = 87 % of control
• O=C(O)/C=C/C(=O)Nc1ccc(NC(=O)/C=C/C(=O)O)cc1 = 96 % of control
• Cc1noc2nc(Cl)cnc12 = 94 % of control
• O=C(Nc1cccc2ccccc12)OCc1ccco1 = 103 % of control

----------
# System: L1210 leukemia ip in BDF1 mice, survival T/C
# assay_notes: NCI In Vivo Anticancer Drug Screen. Data for tumor model L1210 Leukemia (intraperitoneal) in B6D2F1 (BDF1) mice
# test_conditions: endpoint: mean survival time; dose: 100.0 mg/kg/injection; schedule: Q04DX002 (ip); vehicle: saline with Tween-80; higher = longer survival
Toxic doses and inconclusive results are not listed.
readout_type: T/C

• CC(C)(CO)NC(=O)COc1ccc(Cl)cc1Cl = 102 % of control
• CON(C)C(=O)N1c2ccccc2Sc2ccccc21 = 103 % of control
• NC(=O)N/N=C(/Cl)C(=O)NNC(N)=O = 89 % of control
• Nc1ccc2cn[nH]c2c1 = 100 % of control
• Cc1ccccc1NC(=S)NCCC(=O)O = 105 % of control
• CCOC(=O)c1ccc(NC(=S)NC(=O)c2ccccc2)cc1 = 100 % of control
• c1cc(Cc2ccc3c(c2)OCO3)c[nH]1 = 110 % of control
• C/C(=C\COc1ccc(C)cc1)CC/C=C(\C)CCC1OC1(C)C (configuration not stated) = 108 % of control
• Cn1c2ccccc2c2nnc(SCCN3CCOCC3)nc21 = 97 % of control
• CN(C)c1nc(N)c(N=O)c(N)n1 = 111 % of control
• O=[N+]([O-])c1ccccc1NC1OC(CO)C(O)C1O (configuration not stated) = 102 % of control
• O=C(O)C(Br)C(Br)C(=O)Nc1ccc(F)cc1 (configuration not stated) = 104 % of control

----------
# Test system: L1210 leukemia ip in BDF1 mice, survival T/C
# assay_notes: NCI In Vivo Anticancer Drug Screen. Data for tumor model L1210 Leukemia (intraperitoneal) in B6D2F1 (BDF1) mice
# test_conditions: endpoint: mean survival time; dose: 12.5 mg/kg/injection; schedule: Q04DX002 (ip); vehicle: Klucel (hydroxypropylcellulose) (HPC); higher = longer survival
# Protocol: The antitumor activity of compounds was measured in mice bearing transplantable tumors. Survival or tumor size were measured and the results are expressed as the measurement made in the treated group (T) divided by the measurement made in the vehicle treated control group (C). The tumor model used in this assay is L1210 Leukemia (intraperitoneal) in B6D2F1 (BDF1) mice
Toxic doses and inconclusive results are not listed.
This section presents molecules with their documented T/C values.
readout_type: T/C

- O=C(O)C12CCC(CC1)C1CCC2CC1: 101 % of control
- NC(N)=N/N=C/c1cc(Cl)ccc1O: 93 % of control
- COc1cc(Cl)ccc1N=CC(=O)c1ccc(C)cc1: 94 % of control
- COc1cc(O)c2c(c1)Cc1cc(C)cc(O)c1C2=O: 93 % of control

----------
Here, each record is paired with measured T/C data.
# Test system: L1210 leukemia ip in BDF1 mice, survival T/C
# assay_notes: NCI In Vivo Anticancer Drug Screen. Data for tumor model L1210 Leukemia (intraperitoneal) in B6D2F1 (BDF1) mice
# test_conditions: endpoint: mean survival time; dose: 200.0 mg/kg/injection; schedule: Q04DX002 (ip); vehicle: saline with Tween-80; higher = longer survival
Toxic doses and inconclusive results are not listed.
readout_type: T/C

* CC(C)(C)S(=O)(=O)CCS(=O)(=O)C(C)(C)C | 94 % of control
* COc1ccc(S(=O)(=O)F)cc1C(=O)O | 113 % of control
* O=C1c2cccc3cc([N+](=O)[O-])cc(c23)C(=O)N1Cc1ccco1 | 120 % of control
* S=P(c1ccccc1)(c1ccccc1)N1CCCCC1 | 93 % of control
* CC1CC(C)OC2(CCCc3ccccc32)O1 (configuration not stated) | 100 % of control
* OC(c1ccccc1)(c1ccccc1)C(O)(c1ccccc1)c1ccccc1 | 99 % of control
* O=[N+]([O-])c1ccc(O)c(CCl)c1 | 98 % of control
* O=C(OCCc1ccccc1)c1ccccc1 | 100 % of control
* O=C1c2ccccc2C(=O)N1CCCCCN1C(=O)c2ccccc2C1=O | 96 % of control
* CCCC(C)OS(=O)(=O)c1ccc(C)cc1 (configuration not stated) | 93 % of control
* c1ccc(N=Nc2ccnnc2)cc1 | 105 % of control
* CON(C)C(=O)N1c2ccccc2Sc2ccccc21 | 95 % of control
* CCS(=O)(=O)N1CCC(C)CC1 | 101 % of control
* O=C(O)c1cc(S(=O)(=O)F)ccc1O | 101 % of control
* CN(C)c1nc(N)c(N=O)c(N)n1 | 107 % of control
* C=C(OCC)P(=O)(OCCCC)OCCCC | 90 % of control
* Cn1c2ccccc2c2nnc(SCCN3CCOCC3)nc21 | 93 % of control

----------
# Test system: L1210 leukemia ip in BDF1 mice, survival T/C
# assay_notes: NCI In Vivo Anticancer Drug Screen. Data for tumor model L1210 Leukemia (intraperitoneal) in B6D2F1 (BDF1) mice
# test_conditions: endpoint: mean survival time; dose: 100.0 mg/kg/injection; schedule: Q04DX003 (ip); vehicle: saline; higher = longer survival
Toxic doses and inconclusive results are not listed.
readout_type: T/C

- CCOC(=O)N(Cc1ccccc1)C1CC1: 104 % of control
- Nc1ncnn1Cc1ccccc1: 101 % of control
- COC(=O)c1cccc(C)n1: 104 % of control

----------
# System: L1210 leukemia ip in BDF1 mice, survival T/C
# assay_notes: NCI In Vivo Anticancer Drug Screen. Data for tumor model L1210 Leukemia (intraperitoneal) in B6D2F1 (BDF1) mice
# test_conditions: endpoint: mean survival time; dose: 100.0 mg/kg/injection; schedule: Q01DX009 (ip); vehicle: saline with Tween-80; higher = longer survival
Toxic doses and inconclusive results are not listed.
Quick reference for T/C among some compounds
readout_type: T/C

• COc1cc(C(C)O)cc(OC)c1OC (configuration not stated) = 101 % of control
• COc1ccc(Cc2nnc(Cc3ccc(OC)c(OC)c3)nn2)cc1OC = 93 % of control
• Nc1[nH]nc2nccnc12 = 103 % of control
• COc1ccc(OC(=O)Nc2ccc(SC)cc2)cc1 = 104 % of control
• OC(C1CCCCN1)C12CC3CC(CC(C3)C1)C2 (configuration not stated) = 98 % of control
• c1ccc2c(c1)-c1ccccc1[Si]21c2ccccc2-c2ccccc21 = 97 % of control
• CC(C)C1(O)C2C3CCC(C3)C2C(=O)C2C3CCC(C3)C21 (configuration not stated) = 93 % of control

----------
# Tested on: L1210 leukemia ip in BDF1 mice, survival T/C
# assay_notes: NCI In Vivo Anticancer Drug Screen. Data for tumor model L1210 Leukemia (intraperitoneal) in B6D2F1 (BDF1) mice
# test_conditions: endpoint: mean survival time; dose: 200.0 mg/kg/injection; schedule: Q04DX003 (ip); vehicle: saline; higher = longer survival
Inconclusive results and toxic doses are left out.
readout_type: T/C

- CN(CC(C)(C)C=O)C(=O)c1ccccc1: 103 % of control
- OCC1(CO)CCCCO1: 95 % of control
- O=C(O)CCCN1C/C(=C\c2ccccc2)C(=O)C1=O: 101 % of control
- OC(CC(O)(C(F)(F)Cl)C(F)(F)Cl)c1cccs1 (stereo not given): 95 % of control
- CCOC(=O)C(O)(CC)c1ccncc1C (stereo not given): 98 % of control
